- TEST PROTOCOL: Oral bioavailability in mice, Method A
- Assay type: in vivo
- COND: male, mouse, plasma, CD-1 mice, 10 mg/kg po
Where a name gives a salt, the structure may show the parent alone.
VALUE TYPE: log10(Cmax) (log10 of the value in ng/mL)
Heads up, the numbers here are log10 of Cmax in ng/mL units.

Query block: Form field: reported log10(Cmax) of CNC1(c2ccccc2OC)CCCCC1=O (racemic)
Result block: 2.98

Query block: Try CCNC1(c2cccc(OC)c2)CCCCC1=O (racemic) next.
Result block: 2.13

Query block: Same for CN[C@]1(c2ccccc2)CCCCC1=O [Compound 14S]
Result block: 2.98

Query block: Now consider CN[C@@]1(c2ccccc2)CCCCC1=O [Compound 14R] .
Result block: 3.23

Query block: How about CNC1(c2ccccc2)CCCCC1=O (racemic) [Compound 14rac, hydrochloride] ?
Result block: 2.97

Query block: Please do the same for CNC1(c2ccccc2F)CCCCC1=O (racemic) as well.
Result block: 2.79

====

For each entry below, report its F value.
- TEST PROTOCOL: Oral bioavailability in mice, Method A
- Type: in vivo
- COND: plasma, CD-1 mice, absolute oral bioavailability, 10 mg/kg
Counter-ions that a name gives are not always drawn.
Report the figure in % without appending any unit label.

Query block: Sample CNC1(c2ccccc2F)CCCCC1=O (racemic) — what was its F?
Result block: 28

Query block: CNC1(c2ccccc2OC)CCCCC1=O (racemic) , same question.
Result block: 51

Query block: Quick one: CNC1(c2ccccc2)CCCCC1=O (racemic) [Compound 14rac, hydrochloride]
Result block: 48

Query block: Ok, now CNC1(c2ccccc2Cl)CCCCC1=O (racemic) [rac-ketamine, racemic ketamine, reference compound]
Result block: 15

Query block: Check CN[C@]1(c2ccccc2)CCCCC1=O [Compound 14S] too.
Result block: 45.5

Query block: One more molecule: CN[C@@]1(c2ccccc2)CCCCC1=O [Compound 14R]
Result block: 40

Query block: Thanks! And CCNC1(c2cccc(OC)c2)CCCCC1=O (racemic) ?
Result block: 6

====

Hi there, I'd appreciate the recorded AUC0-inf (iv) for every entry that follows.
- TEST PROTOCOL: Oral bioavailability in mice, Method B
- Type: in vivo
- COND: brain, CD-1 mice, 10 mg/kg iv, Method B: values represent AUC0-last (footnote)
- Protocol: Animals. Male CD-1 mice were used in these studies Animals were randomly assigned to treatment groups and were fasted for 4 h before oral dosing. Drugs. […] They were then administered intravenously (iv) or orally (po) at a dose of 10 mg/kg (calculated based on freebase) and at a volume of 5 mL/kg body weight. […]

Query block: Need AUC0-inf (iv), item Cc1ccccc1[C@]1(N)CCCCC1=O [Compound 114R, (R)-2-amino-2-(o-tolyl)cyclohexan-1-one]
Result block: 155,752 ng*min/g

Query block: # iterate: N[C@@]1(c2ccccc2)CCCCC1=O [Compound 11R, (R)-2-amino-2-phenyl-cyclohexan-1-one]
Result block: 621,341 ng*min/g

Query block: Note, next up: [2H]C([2H])([2H])N[C@@]1(c2ccccc2)CCCCC1=O [Compound 88R]
Result block: 334,518 ng*min/g

Query block: Lookup Cc1ccccc1[C@@]1(N)CCCCC1=O [Compound 114S, (S)-2-amino-2-(o-tolyl)cyclohexan-1-one]
Result block: 244,634 ng*min/g

Query block: Now this one: CN[C@]1(c2cccc(F)c2)CCCCC1=O [Compound 19S]
Result block: 171,028 ng*min/g

Query block: Follow-up entry: N[C@]1(c2ccccc2)CCCCC1=O [Compound 11S, (S)-2-amino-2-phenyl-cyclohexan-1-one]
Result block: 434,023 ng*min/g
